Biological target: T1, 4H3974-bA
T1 chain: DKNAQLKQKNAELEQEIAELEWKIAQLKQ
Experiment: two-hybrid library CCNG1;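 further: natural log of median RNA to DNA barcode read ratio; higher means stronger binding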
MEASURE: interaction score
Please state the value as a number alone, without comment.

Previously resolved entries follow.
[[record]]
binder = "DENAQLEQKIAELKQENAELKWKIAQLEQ [4H1373-bA]"
recorded_result = -0.681

[[record]]
binder = "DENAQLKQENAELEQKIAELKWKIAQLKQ [4H1710-bA]"
recorded_result = 1.34

[[record]]
binder = "DKNAQLEQKIAELKQENAELEWKIAQLKQ [4H3414-bA]"
recorded_result = -0.77

[[record]]
binder = "DKNAQLKQENAELKQKIAELKWEIAQLEQ [4H3817-bA]"
recorded_result = 1.27


Then there is this binder:
Please look up its interaction score: DKNAQLKQEIAELEQKIAELKWKNAQLEQ [4H3631-bA]
0.937
